Molecular target: Adenosine receptor A2b (Homo sapiens) (UniProt P29275)
Assay: Displacement of [3H]DPCPX from human from adenosine A2B receptor in HEK293 cells at 10 uM after 30 mins by Scatchard plot analysis
Assay type: cell-based
assay_readout: inhibition (%)
The response must be a number in % with no trailing unit.

Some compounds with known inhibition results, for comparison:
>  <compound>
CC1=C(C(=O)OC(C)C)C(c2cccs2)NC(=O)N1C (racemic)

>  <inhibition (%)>
28

$$$$
>  <compound>
CCOC(=O)C1=C(C(F)(F)F)NC(=O)NC1c1ccco1 (racemic)

>  <inhibition (%)>
2

$$$$

Any idea what inhibition came out for CC1=C(C(=O)OC(C)(C)C)C(c2ccco2)NC(=O)N1 (racemic) on Adenosine receptor A2b (Homo sapiens) (UniProt P29275)? 44

Give inhibition (Adenosine receptor A2b (Homo sapiens) (UniProt P29275)) of the following compound: CCOC(=O)C1=C(C)N(C)C(=O)NC1c1cccs1 (racemic) 11

Request - read-out inhibition | tested on Adenosine receptor A2b (Homo sapiens) (UniProt P29275) | compound CC(=O)C1=C(C)NC(=O)NC1c1ccco1 (racemic) 38

Hello, I am looking for reported inhibition with Adenosine receptor A2b (Homo sapiens) (UniProt P29275) for CCOC(=O)C1=C(C)NC(=O)NC1c1cccs1 (racemic) . Could you help? 39

Enter reported inhibition observed with Adenosine receptor A2b (Homo sapiens) (UniProt P29275) for CCOC(=O)C1=C(c2ccccc2)NC(=O)NC1c1ccco1 (racemic) 28

----------
Target: Adenosine receptor A2a (Homo sapiens, UniProt P29274)
Sequence (P29274 whole entry): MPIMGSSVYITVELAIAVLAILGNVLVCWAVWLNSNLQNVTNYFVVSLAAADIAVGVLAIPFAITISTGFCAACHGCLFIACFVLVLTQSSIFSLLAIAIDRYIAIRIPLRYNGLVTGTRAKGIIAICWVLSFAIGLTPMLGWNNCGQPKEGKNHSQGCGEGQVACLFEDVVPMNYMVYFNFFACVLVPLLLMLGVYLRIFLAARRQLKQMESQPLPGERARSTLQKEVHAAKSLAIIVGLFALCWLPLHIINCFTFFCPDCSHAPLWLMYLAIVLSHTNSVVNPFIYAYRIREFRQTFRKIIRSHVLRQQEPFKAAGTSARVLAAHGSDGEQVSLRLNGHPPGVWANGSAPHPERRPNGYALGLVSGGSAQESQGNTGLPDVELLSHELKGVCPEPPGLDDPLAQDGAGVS
Assay: Displacement of [3H]ZM241385 from adenosine A2A receptor in human HeLa cells at 10 uM after 30 mins
Type: cell-based
Binary call on inhibition: Criterion met from 20% upward, Criterion not met beneath that.

Please review the following examples before continuing.
>  <compound>
CCOC(=O)C1=C(c2ccccc2)NC(=O)NC1c1ccco1 (racemic)

>  <class_name>
Criterion not met

$$$$
>  <compound>
CCCOC(=O)C1=C(C)NC(=O)NC1c1ccco1 (racemic)

>  <class_name>
Criterion met

$$$$
>  <compound>
CC1=C(C(=O)OC(C)C)C(c2ccco2)NC(=O)N1C (racemic)

>  <class_name>
Criterion met

$$$$
>  <compound>
CC1=C(C(=O)OC(C)C)C(c2cccs2)NC(S)=N1 (racemic)

>  <class_name>
Criterion not met

$$$$
>  <compound>
CC1=C(C(=O)OC(C)C)C(c2ccco2)NC(=S)N1 (racemic)

>  <class_name>
Criterion not met

$$$$

Here is the next item to consider.
Quick check, inhibition >= 20%? CCOC(=O)C1=C(C)NC(=O)NC1c1ccsc1 (racemic) Criterion met

----------
Target: Adenosine receptor A2a (Homo sapiens, UniProt P29274)
Assay: Displacement of [3H]ZM241385 from adenosine A2A receptor in human HeLa cells after 30 mins
pKi: −log10 of the molar value.
assay_readout: pKi

>  <compound>
CC1=C(C(=O)OC(C)C)C(c2ccco2)NC(=S)N1 (racemic)

>  <pKi>
< 5.00

$$$$

Which pKi is listed for CCCC1=C(C(=O)OCC)C(c2ccco2)NC(=O)N1 (racemic) ? 6.22

Could you share which pKi value was measured for CCOC(=O)C1=C(C)NC(=O)NC1c1ccsc1 (racemic) ? < 5.00

----------
Target: Adenosine receptor A2b (Homo sapiens)
Sequence (P29275 whole entry): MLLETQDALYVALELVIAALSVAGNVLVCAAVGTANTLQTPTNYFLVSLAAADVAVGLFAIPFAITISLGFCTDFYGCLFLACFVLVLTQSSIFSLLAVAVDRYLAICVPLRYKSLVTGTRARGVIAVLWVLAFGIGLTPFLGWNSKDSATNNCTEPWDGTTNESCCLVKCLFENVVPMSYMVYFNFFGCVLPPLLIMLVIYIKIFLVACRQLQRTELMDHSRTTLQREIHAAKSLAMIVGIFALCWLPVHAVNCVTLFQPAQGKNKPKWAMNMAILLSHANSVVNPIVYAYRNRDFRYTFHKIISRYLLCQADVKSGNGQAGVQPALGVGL
assay_readout: pKi
Field pKi (float): negative decimal logarithm of the concentration in molar.

Please review the entries below; each comes with its answer.
>  <compound>
CC1=C(C(=O)OC(C)C)C(c2ccsc2)NC(=S)N1 (racemic)

>  <number>
6.38

$$$$
>  <compound>
CCOC(=O)C1=C(C)NC(=O)NC1c1ccoc1 (racemic)

>  <number>
7.40

$$$$
>  <compound>
CCOC(=O)C1=C(C)N=C(S)NC1c1cccs1 (racemic)

>  <number>
5.20

$$$$
>  <compound>
CC1=C(C(=O)OC(C)C)C(c2ccsc2)NC(=O)N1 (racemic)

>  <number>
7.25

$$$$
>  <compound>
CCOC(=O)C1=C(C)NC(=O)N(C(C)=O)C1c1ccco1 (racemic)

>  <number>
5.51

$$$$
>  <compound>
CC1=C(C(=O)OC(C)C)C(c2ccco2)NC(=O)N1C (racemic)

>  <number>
5.94

$$$$
>  <compound>
CCOC(=O)C1=C(C)NC(=O)NC1c1ccco1 (racemic)

>  <number>
6.23

$$$$
>  <compound>
CC1=C(C(=O)OC(C)C)C(c2ccco2)NC(=O)N1 (racemic)

>  <number>
7.39

$$$$
>  <compound>
CC1=C(C(=O)OC(C)C)C(c2ccoc2)NC(=O)N1 (racemic)

>  <number>
5.83

$$$$
>  <compound>
CCOC(=O)C1=C(C)N(C)C(=O)NC1c1ccsc1 (racemic)

>  <number>
5.53

$$$$

Item under review: CCOC(=O)C1=C(C)NC(=O)NC1c1ccsc1 (racemic) . Reported pKi? 7.63

What measured pKi goes with COC(=O)C1=C(C)NC(=O)NC1c1ccco1 (racemic) ? 5.67

# lookup: pKi of "CCOC(=O)c1c(-c2ccco2)nc(=O)[nH]c1C" 5.46

Find the recorded pKi belonging to CCCOC(=O)C1=C(C)NC(=O)NC1c1ccco1 (racemic) and report it. 6.69

----------
Target: Adenosine receptor A3 (Homo sapiens)
Experiment: Displacement of [3H]NECA from adenosine A3 receptor in human HeLa cells at 10 uM after 180 mins
Assay type: cell-based
Please enter T where inhibition is greater than or equal to 5%, and F where it is lower.

>  <molecule>
CCOC(=O)C1=C(C)N=C(S)NC1c1ccsc1 (racemic)

>  <class_name>
F

$$$$
>  <molecule>
CC(=O)C1=C(C)NC(=O)NC1c1ccco1 (racemic)

>  <class_name>
T

$$$$
>  <molecule>
CC1=C(C(=O)OC(C)C)C(c2cccs2)NC(=O)N1 (racemic)

>  <class_name>
T

$$$$
>  <molecule>
CC1=C(C(=O)OC(C)C)C(c2cccs2)NC(S)=N1 (racemic)

>  <class_name>
T

$$$$
>  <molecule>
CC1=C(C(N)=O)C(c2ccco2)NC(=O)N1 (racemic)

>  <class_name>
F

$$$$
>  <molecule>
CCOC(=O)C1=C(C)N(C)C(=O)NC1c1ccoc1 (racemic)

>  <class_name>
F

$$$$
>  <molecule>
CCCOC(=O)C1=C(C)NC(=O)NC1c1ccco1 (racemic)

>  <class_name>
F

$$$$
>  <molecule>
CCOC(=O)C1=C(c2ccccc2)NC(=O)NC1c1ccco1 (racemic)

>  <class_name>
F

$$$$

Decide: is the reported value of inhibition for CC1=C(C(=O)OC(C)C)C(c2cccs2)NC(=O)N1C (racemic) equal to or greater than 5%? T

Please tell me: is the molecule CCOC(=O)C1=C(C)N(C)C(=O)NC1c1cccs1 (racemic) at or over 5% in terms of inhibition? T

State whether the measured inhibition reaches 5%, counting equality as reaching it, for CCOC(=O)C1=C(C)N=C(S)NC1c1cccs1 (racemic) F

Hi, just wondering whether CC1=C(C(=O)OC(C)C)C(c2ccoc2)NC(=S)N1 (racemic) shows inhibition of 5% or higher. T

Textbook exercise: given the entry CC1=C(C(=O)OC(C)C)C(c2ccoc2)NC(=O)N1C (racemic) , state whether its inhibition is greater than or equal to 5%. F

inhibition >= 5% for CCOC(=O)C1=C(C)NC(=O)NC1c1ccco1 (racemic) ? F

Could you verify whether the entry CCOC(=O)C1=C(C)N(C)C(=O)NC1c1ccsc1 (racemic) shows inhibition of no less than 5%? F

Determine whether measured inhibition meets or exceeds 5% for CC1=C(C(=O)OC(C)C)C(c2ccsc2)NC(=S)N1 (racemic) F

Confirm if inhibition reported for the molecule CCOC(=O)C1=C(C)NC(=S)NC1c1ccoc1 (racemic) is 5% or above. T

Please indicate if the recorded inhibition for CC1=C(C(=O)OC(C)C)C(c2ccco2)NC(=O)N1 (racemic) meets or exceeds 5%. F

Reported inhibition at or above 5%? CCOC(=O)C1=C(C)N(C)C(=O)NC1c1ccco1 (racemic) T

----------
Target: Adenosine receptor A2a (Homo sapiens, UniProt P29274)
Assay: Displacement of [3H]ZM241385 from adenosine A2A receptor in human HeLa cells at 10 uM after 30 mins
Format: cell-based
Returns satisfied if the recorded inhibition is greater than or equal to 30%, and not satisfied otherwise.

>  <compound>
CCOC(=O)C1=C(C)NC(=O)NC1c1cccs1 (racemic)

>  <class_name>
satisfied

$$$$
>  <compound>
CCOC(=O)C1=C(C)NC(=O)NC1c1ccoc1 (racemic)

>  <class_name>
not satisfied

$$$$
>  <compound>
CCOC(=O)C1=C(C)N(C)C(=O)NC1c1ccsc1 (racemic)

>  <class_name>
not satisfied

$$$$
>  <compound>
CCOC(=O)c1c(-c2ccco2)nc(=O)[nH]c1C

>  <class_name>
not satisfied

$$$$
>  <compound>
CCOC(=O)C1=C(C)N=C(S)NC1c1cccs1 (racemic)

>  <class_name>
not satisfied

$$$$

# bool: inhibition of CCOC(=O)C1=C(C(F)(F)F)NC(=O)NC1c1ccco1 (racemic) >= 30% satisfied

Please check the record CC(=O)C1=C(C)NC(=O)NC1c1ccco1 (racemic) and state if its inhibition is at or above 30%. not satisfied

Is it the case that CCOC(=O)C1=C(C)NC(=O)NC1c1ccco1 (racemic) has inhibition reaching or exceeding 30%? satisfied

# bool: inhibition of CC1=C(C(=O)Nc2ccccc2)C(c2ccco2)NC(=O)N1 (racemic) >= 30% not satisfied
